B1: PLAGL1 (parent)
chain: EKPPSGTKEKKHQCDHCERCFYTR

variants of: B1; assay: protein stability index of a GFP-peptide fusion (GPS, HEK-293T) (PSI 1-6); higher = more stable; conditions: c terminus: a fixed tail appended;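 note: lentivirally expressed fusions sorted by FACS into six bins by GFP to DsRed ratio, PSI derived from sequencing read proportions per bin multiplied by bin number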
readout_name: protein stability index
Respond with the number and no other words.

Can you look up the measured protein stability index of K2Q for me?
4.12

Subsequent entry: R24Y
3.96

Subsequent entry: R19Y
3.79

Subsequent entry: G6L
3.92

Subsequent entry: R19C
3.3

Subsequent entry: K10W
3.55

Subsequent entry: R19V
3.39

Subsequent entry: R24T
4.93

Subsequent entry: C17G
3.43

Subsequent entry: K10P
4.16

Subsequent entry: Q13V
3.17

Subsequent entry: R24F
4.35

Subsequent entry: P4D
4.31

Subsequent entry: C20N
2.6

Subsequent entry: T7N
3.6

Subsequent entry: H16P
3.94

Subsequent entry: D15S
3.29

Reference source for all entries: the supplement of paper PMC10567573
